test system: MDA-MB-435; test: NCI tumour cell line growth inhibition, 48 h
The molecules listed here are annotated with their TGI.

- molecule: "CC1(C)NC2C(=O)c3c([nH]c4ccccc34)[C@]3(C)CCC1CC23 (stereo not given in full)"
  comparison.symbol: ">"
  TGI [µM]: 100
- molecule: "O=C(O)c1ccc([N+](=O)[O-])c2cc3cnccc3nc12"
  comparison.symbol: ">"
  TGI [µM]: 100
- molecule: "O=C(N/N=C\\c1cccc2c([N+](=O)[O-])cccc12)Nc1ccccc1"
  comparison.symbol: "="
  TGI [µM]: 25
- molecule: "Cc1ccc(/C=C2\\CCCc3ccccc3C2=O)cc1"
  comparison.symbol: "="
  TGI [µM]: 8.46
- molecule: "CCOP(C)(=O)C(N)Cc1ccc(OC)c(OC)c1 (stereo not given)"
  comparison.symbol: ">"
  TGI [µM]: 100

====

test system: OVCAR-4 ovarian; experiment: NCI tumour cell line growth inhibition, 48 h
The molecules listed here are annotated with their TGI.
attribute.measured: TGI

- molecule: "Cc1cc(S(=O)(=O)Nc2nnc(-c3ccccc3)c(-c3ccccc3)n2)c(SCC(N)=O)cc1Cl"
  attribute.measured: "TGI"
  value: "> 100 µM"
- molecule: "Oc1cccnc1CN1CCCCC1"
  attribute.measured: "TGI"
  value: "> 100 µM"
- molecule: "CCC[CH2][Sn]1([CH2]CCC)[O]CC(CN2CCCC2)[O]1 (stereo unspecified)"
  attribute.measured: "TGI"
  value: "28.5 µM"
- molecule: "CC1(C)SCc2nc3ncccc3n21"
  attribute.measured: "TGI"
  value: "> 100 µM"
- molecule: "N#CC(NNC(=O)Cc1ccccc1)c1c(O)ccc2ccccc12 (stereo unspecified)"
  attribute.measured: "TGI"
  value: "51 µM"
- molecule: "COCN(CCC1=CCCCC1)C(=O)OC"
  attribute.measured: "TGI"
  value: "> 100 µM"

====

system: UACC-62 melanoma; experiment: NCI tumour cell line growth inhibition, 48 h
The compounds listed here are annotated with their TGI.

- compound: "c1ccc(CNn2nnc3ccccc32)cc1"
  TGI: "> 100 µM"
- compound: "COc1cc2ncnc(Nc3ccc(C)c(O)c3)c2cc1OC"
  TGI: "> 25 µM"
- compound: "NP(=O)(Oc1c2occc2cc2ccc(=O)oc12)N(CCCl)CCCl (stereo not drawn)"
  TGI: "> 100 µM"
- compound: "COc1cc(Cn2c3c(c4cc(O)ccc42)Cc2ccccc2C3=O)cc(OC)c1"
  TGI: "> 100 µM"
- compound: "Cc1cccc(NC(=O)C(=O)C(C(=O)c2ccc3ccccc3c2)C2OC(=O)c3ccccc32)c1C (stereo not drawn)"
  TGI: "22.5 µM"
- compound: "CS/C(N)=N\\NC(=O)CCC(=O)Nc1ccccc1C(F)(F)F"
  TGI: "> 100 µM"
- compound: "CC(C)(C)c1cc(C(C)(C)C)cc(S(=O)(=O)Nc2cc3ccccc3cc2C(=O)NCCN)c1"
  TGI: "3.4 µM"
- compound: "CC(=O)CSCc1ccccn1"
  TGI: "> 100 µM"
- compound: "OCC(O)COCn1nncc1Cn1ncc2c(SCc3ccccc3)ncnc21 (stereo not drawn)"
  TGI: "> 100 µM"
- compound: "O=C(c1ccc(N=Cc2ccccc2O)cc1)c1ccc(N=Cc2ccccc2O)cc1"
  TGI: "> 100 µM"
- compound: "Cc1c(S(=O)(=O)/N=C(\\NO)Nc2ccc(Cl)c(Cl)c2)sc2ccc(Cl)cc12"
  TGI: "37.2 µM"
- compound: "CCCCCCCC/C=C/CCCCCCCC(=O)OC[C@H]1O[C@@H](n2ccc(N)nc2=O)C(F)(F)[C@@H]1O"
  TGI: "> 100 µM"
- compound: "O=C(NC1=CC(=O)c2ccccc2C1=O)c1ccccc1"
  TGI: "0.799 µM"
- compound: "CCN(CC)C(=O)Cn1c(C)cc2ccccc21"
  TGI: "> 100 µM"
- compound: "NS(=O)(=O)c1ccc(N=Nc2c(O)[nH]c3ccc(-c4cnco4)cc23)cc1"
  TGI: "> 25 µM"
- compound: "Cc1ccc(/C=C2\\CCCc3ccccc3C2=O)cc1"
  TGI: "29.2 µM"
- compound: "COC(=O)C1=C(C)N(NC(=O)OC(C)(C)C)C(=O)C1=P(c1ccccc1)(c1ccccc1)c1ccccc1"
  TGI: "> 100 µM"
- compound: "O=C1C(CN2CCCCC2)CCC1CN1CCCCC1 (stereo not drawn)"
  TGI: "32.3 µM"
- compound: "O=C1C=CC[C@H]2O[C@@H](COC(=O)Cc3ccccc3)C[C@H]2O1"
  TGI: "> 100 µM"
- compound: "COc1cc2c(cc1OC)C(CC(=O)NN=C(C)C)NCC2 (stereo not drawn)"
  TGI: "> 100 µM"
- compound: "CCOC(=O)c1nc2ccc(C(F)(F)F)cc2nc1NCc1cc(OC)c(OC)c(OC)c1"
  TGI: "> 100 µM"
- compound: "O=C(N/N=C\\c1cccc2c([N+](=O)[O-])cccc12)Nc1ccccc1"
  TGI: "24.4 µM"
- compound: "COc1ccc(/C=C/c2ccnc3ccccc23)c(OC)c1"
  TGI: "> 10 µM"
- compound: "Cc1cc(S(=O)(=O)Nc2nnc(-c3ccccc3)c(-c3ccccc3)n2)c(SCC(N)=O)cc1Cl"
  TGI: "56.2 µM"
- compound: "Cc1ccn2c(c1)nc1nc3ccccc3nc12"
  TGI: "> 100 µM"
- compound: "c1ccc2c(c1)ccn2CCc1c[nH]c2ccccc12"
  TGI: "> 10 µM"
- compound: "CCOC(=O)C(=Cc1[nH]c2ccccc2c1-c1c[nH]c2ccccc12)C(=O)OCC"
  TGI: "19.4 µM"
- compound: "Cc1ccc(C2=C(c3ccccc3)C(Br)(c3ccc(C)cc3)C(c3ccccc3)=C2c2ccc(C)cc2)cc1"
  TGI: "> 100 µM"
- compound: "C[C@@H]1CC(=O)C2CCCC1C2=O (stereo partly drawn)"
  TGI: "> 100 µM"
- compound: "CN1C(=O)c2cccc3cc([N+](=O)[O-])cc(c23)C1=O"
  TGI: "> 10 µM"
- compound: "CCOC(=O)CC1(C(=O)OCC)c2[nH]c3ccccc3c2CCN1Cc1ccccc1 (stereo not drawn)"
  TGI: "32.2 µM"
- compound: "OC[C@H]1CCCC1O (stereo partly drawn)"
  TGI: "> 100 µM"
- compound: "CC(C)n1nc(-c2cc3cc(O)ccc3[nH]2)c2c(N)ncnc21"
  TGI: "0.962 µM"
- compound: "CCOP(C)(=O)C(N)Cc1ccc(OC)c(OC)c1 (stereo not drawn)"
  TGI: "> 100 µM"
- compound: "O=C1CCC(c2ccc(Cl)cc2)=NN1c1nsc2ccccc12"
  TGI: "> 100 µM"
- compound: "NC(N)=N/N=C(\\c1nc2ccc([N+](=O)[O-])cc2[nH]c1=O)C(O)c1ccc([N+](=O)[O-])cc1 (stereo not drawn)"
  TGI: "> 100 µM"
- compound: "CCOc1ccccc1NC(=O)CC(C(=O)OC)C(=O)C(=O)OC (stereo not drawn)"
  TGI: "> 100 µM"
- compound: "Cc1nc(N)sc1C(=O)/C=C\\c1ccc2c(c1)OCO2"
  TGI: "> 100 µM"
- compound: "CC(C)[Si](OC1=C(C(=O)N(C)c2cccc(Cl)c2)CCCC1)(C(C)C)C(C)C"
  TGI: "30.8 µM"
- compound: "CN1C/C=C\\CCOc2cccc(c2)-c2ccnc(n2)Nc2cccc(c2)C1"
  TGI: "0.148 µM"
- compound: "COc1ccc(C2OC[C@H]3O[C@@H](OCc4ccccc4)[C@H](O)[C@@H](O)[C@@H]3O2)cc1 (stereo partly drawn)"
  TGI: "> 100 µM"
- compound: "Cn1cc(NC(=O)c2cc(NC(=O)CN=C(N)N)cn2C)cc1C(=O)NCCC(=N)N"
  TGI: "> 100 µM"
- compound: "CC(=O)OC(/C=C/c1ccccc1)=C(OC(C)C)/C1=C(\\c2ccccc2)SCCCSC1=O"
  TGI: "> 100 µM"

====

system: SNB-75 CNS; experiment: NCI tumour cell line growth inhibition, 48 h; in the data active = GI50 below about 0.43 µM; inactive = the rest
Possible outcomes: active, inactive

- compound: "CCCCCCCC/C=C/CCCCCCCC(=O)OC[C@H]1O[C@@H](n2ccc(N)nc2=O)C(F)(F)[C@@H]1O"
  classification: "active"
- compound: "O=C(N/N=C/c1ccc(Cl)cc1)c1ccc(C(F)(F)F)nc1Nc1cccc(C(F)(F)F)c1"
  classification: "inactive"
- compound: "CC(=O)/C(C)=N/NC(=O)c1ccccc1O"
  classification: "inactive"
- compound: "c1cc(CNC23CC4CC(CC(C4)C2)C3)cc(C[N+](Cc2cccc(CNC34CC5CC(CC(C5)C3)C4)c2)(Cc2cccc(CNC34CC5CC(CC(C5)C3)C4)c2)Cc2cccc(CNC34CC5CC(CC(C5)C3)C4)c2)c1 (centres undefined)"
  classification: "inactive"

The values you see were collected from PubChem BioAssay (NCI).
